systemUnderTest: recombinant human GSK3β (Homo sapiens, UniProt P49841)
Sequence (P49841 whole entry): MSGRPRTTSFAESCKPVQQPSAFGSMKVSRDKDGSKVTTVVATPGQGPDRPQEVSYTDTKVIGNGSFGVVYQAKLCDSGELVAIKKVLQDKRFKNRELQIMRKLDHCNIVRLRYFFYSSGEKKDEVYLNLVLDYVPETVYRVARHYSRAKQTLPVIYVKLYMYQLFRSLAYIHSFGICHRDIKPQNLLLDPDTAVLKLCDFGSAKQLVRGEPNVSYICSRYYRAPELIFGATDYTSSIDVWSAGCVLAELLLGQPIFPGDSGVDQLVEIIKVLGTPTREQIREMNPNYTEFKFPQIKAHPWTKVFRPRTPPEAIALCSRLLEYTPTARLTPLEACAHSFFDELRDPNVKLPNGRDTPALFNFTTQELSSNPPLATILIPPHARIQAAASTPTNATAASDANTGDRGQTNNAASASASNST
protocolDetails: GSK3β Scintillation Proximity Assay (ATP competition)
appliedConditions: inhibition constants calculated with Km of ATP for GSK3β of 20 μM; 1 μM ATP, 1 μM biotinylated peptide substrate
Counter-ions that a name gives are not always drawn.
observationType: pKi
Please treat pKi as minus the base-10 logarithm of the molar concentration.

Here are 4 compounds together with their reported answers.
Query: Quick check: pKi on recombinant human GSK3β (Homo sapiens, UniProt P49841), item CCC(C)N1CCN(C(=O)c2ccc(Nc3ncc(F)c(-c4cnc(C)n4C4CCOCC4)n3)cn2)CC1 (stereo not shown) ?
Response: 7.07

Query: Can you check Cc1ncc(-c2nc(Nc3ccc(C(=O)N4CCN(Cc5ccccc5)CC4)nc3)ncc2F)n1C1CCOCC1 next?
Response: 7.72

Query: Then what about the compound Cc1ncc(-c2nc(Nc3ccc(S(C)(=O)=O)cn3)ncc2F)n1C1CCOCC1 [Example 1, hydrochloride] ?
Response: 6.33

Query: For Cc1ncc(-c2nc(Nc3cnc(C(=O)N4CCCCC4)c(Cl)c3)ncc2F)n1C1CCOCC1 [Example 54, hydrochloride] then?
Response: 8.15

More entries:
Query: Please provide the recorded pKi for Cc1ncc(-c2nc(Nc3ccc(C(=O)N4CCC(C)CC4)nc3)ncc2F)n1C1CCOCC1 , tested on recombinant human GSK3β (Homo sapiens, UniProt P49841).
Response: 7.55

Query: Lookup Cc1ncc(-c2nc(Nc3ccc(S(=O)(=O)NCC(F)(F)F)nc3)ncc2F)n1C1CCOCC1
Response: 7.41

Query: Now this one: CCN(Cc1ccccc1)C(=O)c1ccc(Nc2ncc(F)c(-c3cnc(C)n3C3CCOCC3)n2)cn1
Response: 7.80

Query: Thanks! And Cc1ncc(-c2nc(Nc3cnc(C(=O)N4CCCCC4)c(Cl)c3)ncc2F)n1C [Example 55, hydrochloride] ?
Response: 7.74

Query: Now consider Cc1ncc(-c2nc(Nc3cnc(C(=O)N4CCC4)c(Cl)c3)ncc2F)n1C .
Response: 7.80

Query: // same read-out, input: Cn1c(-c2nc(Nc3cnc(C(=O)N4CCCCC4)c(Cl)c3)ncc2F)cnc1C(F)(F)F [Example 56, hydrochloride]
Response: 7.26

Query: For CCCN(CC1CC1)C(=O)c1ccc(Nc2ncc(F)c(-c3cnc(C)n3C3CCOCC3)n2)cn1 then?
Response: 7.70

Query: Cool, now Cc1ncc(-c2nc(Nc3ccc(C(=O)N4CCN(C(C)C)CC4)nc3)ncc2F)n1C1CCOCC1
Response: 7.05

Query: Next compound up: CCS(=O)(=O)c1ccc(Nc2ncc(F)c(-c3cnc(C)n3C3CCOCC3)n2)cn1
Response: 7.68

Value source: patent US20080188502A1
